Biological target: Solute carrier organic anion transporter family member (Danio rerio, UniProt A0A8M9PU70)
Experiment: Oatp1d1 Transport Assay
pKi: −log10 of the molar value.
Assign MET whenever pKi does not fall below 5; assign NOT MET whenever it does.

Sample answers from the record:
# Molecule, Category
rows = [
    ("C[C@H](CCC(=O)O)[C@H]1CC[C@H]2[C@@H]3[C@H](O)C[C@@H]4C[C@H](O)CC[C@]4(C)[C@H]3C[C@H](O)[C@]12C", "NOT MET"),
    ("C[C@]12CC[C@@H]3c4ccc(O)cc4CC[C@H]3[C@@H]1CC[C@@H]2O [[2,4,6,7-3H]-17beta-estradiol]", "MET"),
    ("C[C@]12CCC(=O)C=C1CC[C@@H]1[C@@H]2CC[C@]2(C)C(=O)CC[C@@H]12", "MET"),
]

Record CC(C)OC(=O)C(C)(C)Oc1ccc(C(=O)c2ccc(Cl)cc2)cc1 [Finofibrate] ; criterion: pKi no lower than 5. Met?
NOT MET

Would you kindly repeat that for C[C@]12CC[C@@H]3c4ccc(OS(=O)(=O)O)cc4CC[C@H]3[C@@H]1CCC2=O [Estrone Sulphate] ?
MET

Would you kindly repeat that for `CC(=O)C[C@H](c1ccccc1)c1c(O)c2ccccc2oc1=O` ?
MET

Would you kindly repeat that for `C[C@]12CCC(=O)C[C@@H]1CC[C@@H]1[C@@H]2CC[C@]2(C)[C@@H](O)CC[C@@H]12` ?
NOT MET

Would you kindly repeat that for C[C@]12CC[C@@H]3c4ccc(O)cc4CC[C@H]3[C@@H]1CC[C@@H]2O[C@@H]1O[C@H](C(=O)O)[C@@H](O)[C@H](O)[C@H]1O [17beta-Estradiol-17-(beta-D-glucuronide)] ?
MET

###

Biological target: Solute carrier organic anion transporter family member [3-691] (Zebrafish, UniProt A0A0R4IW35)
Sequence (A0A0R4IW35 whole entry): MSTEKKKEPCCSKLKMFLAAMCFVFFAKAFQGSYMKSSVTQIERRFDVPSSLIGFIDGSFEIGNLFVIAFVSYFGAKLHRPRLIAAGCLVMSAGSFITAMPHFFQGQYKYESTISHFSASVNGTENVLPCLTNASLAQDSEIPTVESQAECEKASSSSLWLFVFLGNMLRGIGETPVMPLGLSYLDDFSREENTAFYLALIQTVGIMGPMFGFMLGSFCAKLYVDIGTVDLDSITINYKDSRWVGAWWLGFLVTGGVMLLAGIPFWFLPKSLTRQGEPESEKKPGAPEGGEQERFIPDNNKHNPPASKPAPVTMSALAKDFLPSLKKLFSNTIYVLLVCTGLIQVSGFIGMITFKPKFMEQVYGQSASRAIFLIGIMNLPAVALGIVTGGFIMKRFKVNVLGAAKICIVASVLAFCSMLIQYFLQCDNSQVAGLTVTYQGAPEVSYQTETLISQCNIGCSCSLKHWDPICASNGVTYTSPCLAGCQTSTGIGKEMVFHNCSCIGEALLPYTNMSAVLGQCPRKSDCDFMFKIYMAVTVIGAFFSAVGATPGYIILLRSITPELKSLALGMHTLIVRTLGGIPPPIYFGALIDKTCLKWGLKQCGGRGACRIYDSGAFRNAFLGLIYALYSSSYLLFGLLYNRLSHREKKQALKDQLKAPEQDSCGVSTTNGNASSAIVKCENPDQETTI
Readout Name: Ki (µM)
One number for each entry, in µM.

Which Ki is reported for this compound? `CCOC(=O)C(C)(C)Oc1ccc(Cl)cc1`
345

###

Target: Solute carrier organic anion transporter family member (Danio rerio)
Sequence (A0A8M9PU70 whole entry): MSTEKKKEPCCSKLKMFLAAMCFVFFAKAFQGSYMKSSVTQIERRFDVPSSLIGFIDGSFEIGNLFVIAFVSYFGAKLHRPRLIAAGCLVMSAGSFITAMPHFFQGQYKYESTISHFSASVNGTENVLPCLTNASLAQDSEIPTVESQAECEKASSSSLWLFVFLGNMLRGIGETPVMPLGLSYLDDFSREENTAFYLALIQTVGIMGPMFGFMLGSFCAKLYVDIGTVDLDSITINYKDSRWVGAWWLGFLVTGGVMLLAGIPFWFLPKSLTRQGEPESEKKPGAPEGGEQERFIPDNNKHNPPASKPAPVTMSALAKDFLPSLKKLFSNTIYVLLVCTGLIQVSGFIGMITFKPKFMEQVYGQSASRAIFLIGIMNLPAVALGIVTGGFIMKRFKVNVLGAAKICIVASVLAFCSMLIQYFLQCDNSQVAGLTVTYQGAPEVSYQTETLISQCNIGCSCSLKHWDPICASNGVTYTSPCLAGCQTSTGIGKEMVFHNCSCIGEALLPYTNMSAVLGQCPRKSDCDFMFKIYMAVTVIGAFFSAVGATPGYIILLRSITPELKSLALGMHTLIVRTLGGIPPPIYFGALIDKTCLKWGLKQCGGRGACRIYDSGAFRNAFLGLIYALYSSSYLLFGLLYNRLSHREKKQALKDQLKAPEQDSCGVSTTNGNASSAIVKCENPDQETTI
# if measured Ki < 10 µM: 1  # else: 0

Hello, is Ki of the following molecule strictly smaller than 10 µM? `CO[C@H]1/C=C/O[C@@]2(C)Oc3c(C)c(O)c4c(c3C2=O)C(=O)/C(=C/NN2CCN(C)CC2)C(=C4O)NC(=O)/C(C)=C\C=C\[C@H](C)[C@H](O)[C@@H](C)[C@@H](O)[C@@H](C)[C@H](OC(C)=O)[C@@H]1C`
0

Would you kindly repeat that for `CC[C@H](C)C(=O)O[C@H]1C[C@H](O)C=C2C=C[C@H](C)[C@H](CC[C@@H](O)C[C@@H](O)CC(=O)O)[C@H]21` ?
1

Would you kindly repeat that for `CC(=O)[C@H]1CC[C@H]2[C@@H]3CCC4=CC(=O)CC[C@]4(C)[C@H]3CC[C@]12C` ?
1

Would you kindly repeat that for `Cc1ccc(C)c(OCCCC(C)(C)C(=O)O)c1` ?
1

Would you kindly repeat that for `C[C@]12CC[C@H]3[C@@H](CCC4=CC(=O)CC[C@@]43C)[C@@H]1CC[C@@H]2O` ?
0

Would you kindly repeat that for `O=C1OC(c2ccc(O)c(S(=O)(=O)O)c2)(c2ccc(O)c(S(=O)(=O)O)c2)c2c(Br)c(Br)c(Br)c(Br)c21` ?
1

Would you kindly repeat that for `CCCCC[C@H](O)/C=C/[C@H]1[C@H](O)CC(=O)[C@@H]1C/C=C\CCCC(=O)O` ?
0
